assayed_system: purified HLA DRB1*1201 (Homo sapiens, UniProt P01903+P01911, A100R/A169T/D57E/D86V/F55L/H45Y/K41T/L162R/M171V/P40S/Q125H/Q178H/Q39Y/Q99D/R42G/S66L/T262R/V114A/V67L/W38E/Y59H/Y61H/Y89S)
Construct: purified from EBV transformed homozygous cell lines or single MHC allele transfected 721.221, C1R, or fibroblast lines; made in house
measurement_description: HLA-DR radioligand binding inhibition assay, DRB1*1201
Quick reference: IC50 of the listed items.
Unit nM implied. Number only.

CC[C@H](C)[C@H](NC(=O)[C@H](CS)NC(=O)[C@H](Cc1c[nH]c2ccccc12)NC(=O)[C@@H](N)CCCNC(=N)N)C(=O)N1CCC[C@H]1C(=O)N[C@@H](Cc1c[nH]c2ccccc12)C(=O)N[C@@H](CCC(N)=O)C(=O)N[C@@H](CCCNC(=N)N)C(=O)N[C@@H](CC(C)C)C(=O)N[C@@H](CC(C)C)C(=O)N[C@@H](CC(C)C)C(=O)N[C@H](C(=O)N[C@@H](C)C(=O)N[C@@H](CO)C(=O)N[C@@H](CC(C)C)C(=O)O)[C@@H](C)O [Peptide 9019.0104]    1560

Note: attention shifts to another entry.
Measured IC50, CSCC[C@H](NC(=O)CNC(=O)[C@H](CC(C)C)NC(=O)CNC(=O)[C@H](Cc1ccc(O)cc1)NC(=O)[C@@H](N)CS)C(=O)N[C@@H](CCC(=O)O)C(=O)N[C@@H](Cc1c[nH]cn1)C(=O)N[C@@H](CC(C)C)C(=O)N[C@@H](CCCNC(=N)N)C(=O)N[C@@H](CCC(=O)O)C(=O)N[C@H](C(=O)N[C@@H](CCCNC(=N)N)C(=O)N[C@@H](C)C(=O)N[C@H](C(=O)O)C(C)C)C(C)C [Peptide 9019.0044] : 19000
